Test: Pharmacokinetics in dogs (plasma concentration by HPLC)
Format: in vivo, dog (beagle)
Conditions: dog, plasma, po, 2 mg/kg/day, Dog 4, day 1, 1 h; 2 mg/kg/day PO
readout: concentration at 1 h (ng/mL)

A: Cc1cc(Nc2nccc(-c3ccncc3)n2)ccc1N.Cl.Cl [Compound 2, reference compound]
B: c1cc(Nc2nccc(-c3cccs3)n2)cc(OCCn2ccnc2)c1
IN: I'd appreciate it if you could identify which of A and B has the greater concentration at 1 h. Give the label under which the chosen entry appears.
OUT: B
(B: 364 ng/mL, A: 206 ng/mL)

----------
Test: Pharmacokinetics in dogs (plasma concentration by HPLC)
Format: in vivo, dog (beagle)
Details: dog, plasma, po, 2 mg/kg/day, Mean, day 5; 2 mg/kg/day PO
readout: Cmax (µg/mL)

> print(dat)
                                   compound  readout  endpoint.unit  reported.result
1  c1cc(Nc2nccc(-c3cccs3)n2)cc(OCCn2ccnc2)c1     Cmax          µg/mL            0.277
2  Cc1cc(Nc2nccc(-c3ccncc3)n2)ccc1N.Cl.Cl [Compound 2, reference compound]     Cmax          µg/mL            0.334
